System: 24-hydroxylase promoter, CYP24A1 (pCYP24A1-Luc)
Procedure summary: Transactivation reporter assay (pCYP24A1-Luc) in MCF-7 cells
Condition details: MCF-7 cells, pCYP24A1-Luc
Measure name: Transcriptional activity % relative to 1,25D (100%)
Numeric only. Scale: %

{"columns": ["Compound structure string", "Reported value"],
 "data": [
  ["C=C1/C(=C\\C=C\\c2cc(CCCCCC(C)(C)O)cc(CCCCCC(C)(C)O)c2)C[C@@H](O)C[C@@H]1O", 67],
  ["C=C1/C(=C\\C=C(/CCCCCCC)c2cccc(CCCCCC(C)(C)O)c2)C[C@@H](O)C[C@@H]1O", 6],
  ["C=C1/C(=C\\C=C(/CCCC)c2cccc(CCCCCC(C)(C)O)c2)C[C@@H](O)C[C@@H]1O", 20]
]}

For the compound C=C1/C(=C\C=C(/CCCCCC(C)(C)O)c2cccc(CCCCCC(C)(C)O)c2)C[C@@H](O)C[C@@H]1O , what Transcriptional activity % relative to 1,25D (100%) is on record?
35
